Entries and their EC50
Biological target: hGIPR (Homo sapiens, UniProt P48546)
Sequence (P48546 22-466): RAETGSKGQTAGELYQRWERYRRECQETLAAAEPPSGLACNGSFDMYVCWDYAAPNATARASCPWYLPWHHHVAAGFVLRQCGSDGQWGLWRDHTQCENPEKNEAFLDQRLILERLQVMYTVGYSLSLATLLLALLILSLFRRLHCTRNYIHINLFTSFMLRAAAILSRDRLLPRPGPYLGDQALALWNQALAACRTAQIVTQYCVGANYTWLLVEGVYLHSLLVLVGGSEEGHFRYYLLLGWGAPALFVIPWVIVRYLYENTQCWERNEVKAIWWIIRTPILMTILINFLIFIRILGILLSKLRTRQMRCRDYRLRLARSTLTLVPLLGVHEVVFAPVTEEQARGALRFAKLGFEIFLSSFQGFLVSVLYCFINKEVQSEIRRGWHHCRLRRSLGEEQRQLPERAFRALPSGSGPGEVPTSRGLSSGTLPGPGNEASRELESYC
Assay: Functional cAMP activation in the presence of 0.1% casein (no HSA);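 note: intracellular cAMP rise after 30 min at 37 °C read by HTRF against a standard curve, scaled between buffer alone (0%) and top control ligand concentration (100%), four-parameter fit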
Type: cell-based
Conditions: 0.1% casein, no HSA; geometric mean; read-out: Relative cAMP EC50, hGIPR
Starred links: 1 amine or outer side, 2 acyl side, 3 side chain; linkers in the order of their positions; H or OH if unused. Non-standard residues stand in square brackets, D forms with d. Groups on a side chain read outwards from the residue. No end group written: not given here. *: point of attachment. C18 diacid = O=C(O)CCCCCCCCCCCCCCCCC(=O)*; αMePhe(2-F) = C[C@](N)(Cc1ccccc1F)C(=O)O; γGlu = O=C(O)[C@H](CCC(=O)[*:2])N[*:1]; αMe4Pal = C[C@](N)(Cc1ccncc1)C(=O)O; αMeY = C[C@](N)(Cc1ccc(O)cc1)C(=O)O; 4Pal = N[C@@H](Cc1ccncc1)C(=O)O; αMeL = CC(C)C[C@](C)(N)C(=O)O; αMeS = C[C@](N)(CO)C(=O)O; Orn = NCCC[C@H](N)C(=O)O; AEEA = NCCOCCOCC(=O)O; Aib = CC(C)(N)C(=O)O
Please report the result as a number followed by the unit.

Worked examples, 4 substances total:
H-Y[Aib]QGT[αMePhe(2-F)]TSD[4Pal][αMeS]I[αMeL]LD[Orn]K([AEEA-γGlu-C18 diacid])AQ[αMe4Pal]EFI[dE][αMeY]LIEGGPSSGAPPPSGGGEE-NH2 [Example 1214] = 8.51 pM
H-Y[Aib]QGT[αMePhe(2-F)]TSD[4Pal][αMeS]I[αMeL]LD[Orn]K([AEEA-γGlu-C18 diacid])AQ[αMe4Pal]EFI[dE][αMeY]LIEGGPPS[Aib]EPPPSGGGE-NH2 [Example 1201] = 9.59 pM
Y[Aib]QGT[αMePhe(2-F)]TSD[4Pal]SI[αMeL]LD[Orn]QAQ[αMe4Pal][Orn]FI[dE][αMeY]LIEGGPSSGEPPPETE-NH2 [Example 1230] = 22 pM
H-Y[Aib]QGT[αMePhe(2-F)]TSD[4Pal][αMeS]I[αMeL]LD[Orn]K([γGlu-γGlu-C18 diacid])AQ[αMe4Pal]EFI[dE][αMeY]LIEGGPSSGAPPPSGGGEE-NH2 [Example 1218] = 8.39 pM

Data request: Form field - read-out: EC50; system: hGIPR (Homo sapiens, UniProt P48546); submitted item: H-Y[Aib]QGT[αMePhe(2-F)]TSD[4Pal][αMeS]I[αMeL]LD[Orn]K([AEEA-γGlu-C18 diacid])AQ[αMe4Pal]EFI[dE][αMeY]LIEGGPPS[Aib][Orn]PPP[Orn]GE-NH2 [Example 1195]
Data returned: 7.08 pM

Data request: Cool, now Y[Aib]QGT[αMePhe(2-F)]TSD[4Pal][αMeS]I[αMeL]LD[Orn]K([AEEA-γGlu-C18 diacid])AQ[αMe4Pal]EFI[dE][αMeY]LIEGGPPS[Aib][Orn]PPPSGSE-NH2 [Example 1198]
Data returned: 6.63 pM

Data request: Cool, now H-Y[Aib]QGT[αMePhe(2-F)]TSD[4Pal][αMeS]I[αMeL]LD[Orn]K([AEEA-γGlu-C18 diacid])AQ[αMe4Pal]EFI[dE][αMeY]LIEGGPPS[Aib]EPPPSGSE-NH2 [Example 1200]
Data returned: 8.83 pM

Data request: Cool, now H-Y[Aib]QGT[αMePhe(2-F)]TSD[4Pal][αMeS]I[αMeL]LD[Orn]QAQ[αMe4Pal]EFI[dE][αMeY]LVEGGPSSGAPPPSGS-NH2 [Example 1231]
Data returned: 14.6 pM

Data request: Cool, now Y[Aib]QGT[αMePhe(2-F)]TSD[4Pal][αMeS]I[αMeL]LD[Orn]K([AEEA-γGlu-C18 diacid])AQ[αMe4Pal]EFI[dE][αMeY]LIEGGPPS[Aib]EPPP[Orn]GE-NH2 [Example 1193]
Data returned: 8.97 pM

The origin of these recorded values is patent US20240270821A1.
